This section presents molecules with their documented inhibition in vivo at 1 mg/kg values.
Target: isomerase (Mus musculus)
Construct: The recovery of 11-cis-retinal after bleaching can be used to estimate the activity of isomerase in vivo; from tissue; host or cells: eyes of living mice (CD-1; Balb/c also named)
Sequence (Q91ZQ5 1-533): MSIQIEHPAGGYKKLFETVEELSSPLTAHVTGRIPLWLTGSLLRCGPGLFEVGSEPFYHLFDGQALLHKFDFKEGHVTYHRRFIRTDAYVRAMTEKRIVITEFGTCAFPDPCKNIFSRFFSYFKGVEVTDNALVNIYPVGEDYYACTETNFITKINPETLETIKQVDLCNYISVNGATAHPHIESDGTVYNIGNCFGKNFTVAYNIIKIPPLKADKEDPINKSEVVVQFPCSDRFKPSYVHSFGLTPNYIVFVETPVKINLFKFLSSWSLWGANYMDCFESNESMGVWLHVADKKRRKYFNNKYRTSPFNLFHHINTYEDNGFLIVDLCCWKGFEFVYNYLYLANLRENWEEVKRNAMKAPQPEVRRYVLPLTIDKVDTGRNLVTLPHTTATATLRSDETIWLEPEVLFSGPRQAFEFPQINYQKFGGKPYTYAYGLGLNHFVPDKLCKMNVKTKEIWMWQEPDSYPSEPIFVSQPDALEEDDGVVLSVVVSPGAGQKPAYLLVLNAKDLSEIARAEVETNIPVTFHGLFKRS
Test: In vivo murine isomerase assay
Parameters: species or system mice
Settings: mouse, po, 4 h; read-out: % Inibition 1 mg/kg, 4 h
Method: The capability of compounds described herein to inhibit isomerase was determined by an in vivo murine isomerase assay. […] Retinoids were extracted from the eye and the regeneration of 11-cis-retinal was assessed at various time intervals. […] The samples were analyzed on an Agilent 1100 HPLC system with normal phase column: SILICA (Beckman Coutlier, dp 5 μm, 4.6 mM×250 mM). […] The area under the curve for 11-cis-retinal oxime was calculated by Agilent Chemstation software and recorded manually. […]
All answers are understood in %, so give the number only.

Worked examples follow.
INSERT INTO results (molecule, units_of_measure, result) VALUES
  ('[2H]C([2H])(N)CC(O)c1cccc(NCC2CCCCC2)c1 (stereo not shown) [Example 83]', '%', 89.5),
  ('NCCC(=O)c1cccc(NCC2CCCCC2)c1 [Example 12]', '%', 9.16),
  ('NCCCc1cccc(NCC2CCCC2)c1 [Example 31]', '%', 9.52);

Challenge: For the molecule shown here, CCCC(CCC)CNc1cccc(C(O)CCN)c1 (stereo not shown) [Example 37] , give the reported inhibition in vivo at 1 mg/kg.
Response given: 102

Challenge: For the molecule shown here, NCCCc1cccc(NCCCc2ccccc2)c1 [Example 64] , give the reported inhibition in vivo at 1 mg/kg.
Response given: 3.83

Challenge: For the molecule shown here, CCC(CC)CNc1cccc(C(=O)CCN)c1 [Example 36] , give the reported inhibition in vivo at 1 mg/kg.
Response given: -1.4

Challenge: For the molecule shown here, NCCC(O)c1cccc(NCCCCCOCc2ccccc2)c1 (stereo not shown) [Example 41] , give the reported inhibition in vivo at 1 mg/kg.
Response given: -0.34
